biological target: T1, human PILRA, G78 variant, ectopically expressed on 293 cells (human, UniProt Q9UKJ1 20-303); assay: flow cytometry, 293 cells expressing target
T1 construct: the cells are labelled G78; also called hA G78 OE; hA
T1 sequence (Q9UKJ1 other isoform, or with tags, fused parts or gaps mutant): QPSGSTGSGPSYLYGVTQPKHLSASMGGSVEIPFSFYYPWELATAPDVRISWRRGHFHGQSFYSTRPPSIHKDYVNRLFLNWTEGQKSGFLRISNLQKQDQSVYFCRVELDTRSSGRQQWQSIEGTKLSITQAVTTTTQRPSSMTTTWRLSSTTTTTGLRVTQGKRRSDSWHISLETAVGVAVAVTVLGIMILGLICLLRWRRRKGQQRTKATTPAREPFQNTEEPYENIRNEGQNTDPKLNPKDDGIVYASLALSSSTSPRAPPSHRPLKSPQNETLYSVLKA
measured-endpoint: log10 of EC50 (log10 of the value in µg/mL)

[
  {
    "binder": "B1 (antibody, V domains shown, B-cell cloning campaign (mice)) VH: DVKLVESGGGLVKLGGSLKLSCAASGFTFSSYYMSWVRQTPEKRLEWVAAINSNGDRSYYPDTVKGRFTISRDNAKNTLYLQMSSLKSEDTAFYYCASHGNYYGSPWFAYWGQGTLVTVSA VL: ETTVTQSPASLSVATGEKVTIRCKTSTDIDDDMNWYQQKPGEPPKLLISEGNTLRPGVPSRFSSSGYGTDFVFTIENTLSEDVADYYCLQNDHMPLTFGGGTKLEIK",
    "log10 of EC50": -0.02
  },
  {
    "binder": "A4 (antibody, V domains shown, phage campaign) VH: QVQLVQSGAEVKKPGSSVKVSCKASGYTFTGYAVNWVRQAPGQGLEWMGGIIPIFGTANYAQKFQGRVTITADESTSTAYMELSSLRSEDTAVYYCARNLGYSSGWSGYYYGMDVWGQGTMVTVSS VL: EIVMTQSPATLSVSPGERATLSCRASQSVSSNYLAWYQQKPGQAPRLLIYGASTRATGIPARFSGSGSGTEFTLTISSLQSEDFAVYYCQQYGSSSFTFGPGTKLEIK",
    "log10 of EC50": -0.15
  },
  {
    "binder": "D3 (antibody, V domains shown, second hybridoma campaign) VH: QVQLQQPGADLVKPGASVKVSCKTSGYSFTSYWIHWVKQRPGQGLEWIGRVHPSDSDTDYSQKFKGKATLTVDDSSSTVYMQLTNLTSEDSAVYYCAIEWGYLFDYWGQGTTLSVSS VL: DIVLTQSPISLAVSLGQRATISCWASQSVSTSSYSYVHWYQQKPGQPPKLLIKYASNLDSGVPARFSGSGSGTDFTLNIHPVDEEDTATYYCHHNWEIPYTFGGGTKLEIK",
    "log10 of EC50": -0.70
  },
  {
    "binder": "A1 (antibody, V domains shown, phage campaign) VH: QVQLVQSGAEVKKPGSSVKVSCKASGYTFINHDINWVRQAPGQGLEWMGWMNPNSGNTGYAQKFQGRVTITADESTSTAYMELSSLRSEDTAVYYCARDRRGSYYGLMDWFDPWGQGTLVTVSS VL: DIQMTQSPSSLSASVGDRVTITCRASQSISRWLAWYQQKPGKAPKLLIYDASNLETGVPSRFSGSGSGTDFTLTISSLQPEDFATYYCQQSYSTPSFGQGTKVEIK",
    "log10 of EC50": 0.28
  },
  {
    "binder": "E20 (antibody, V domains shown, B-cell cloning campaign (mice)) VH: QIQLVQSGPELKKPGETVKISCKASGYTFTTYGMSWVKQAPGKGLKWMGWINTYSGVPTYADDFKGRFAFSLETSASTAYLQINNLKNEDTATYFCARYDGYLDYWGQGTTLTVSS VL: DIVLTQSPASLAVSLGQRATISCKASQSVDYDGDSYMNWYQQKPGQPPKLLIYAASNLESGIPARFSGSGSGTDFTLNIHPVEEEDAATYYCQQSNEDLTFGSGTKLEIK",
    "log10 of EC50": 1.53
  },
  {
    "binder": "A11 (antibody, V domains shown, phage campaign; same VH/VL as E17) VH: QVQLVQSGAEVKKPGASVKVSCKASGYTFTSYYMHWVRQAPGQGLEWMGWINPNNGDTNYAQKFQGRVTMTRDTSTSTVYMELSSLRSEDTAVYYCARAGYFDWLLDYYGMDVWGQGTTVTVSS VL: DIVMTQSPLSLPVTPGEPASISCRSSQSLLHSNGYNYLDWYLQKPGQSPQLLIYDASNLETGVPDRFSGSGSGTDFTLKISRVEAEDVGVYYCMQALQTPFGPGTKVDIK",
    "log10 of EC50": -0.22
  }
]
